- assayExplanation: qHTS for differential inhibitors of proliferation of Plasmodium falciparum line GB4 (AID 1816);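 note: parasite growth measured after 72 h incubation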
- measurementSetup: Plasmodium falciparum GB4 proliferation inhibition; series mostly up to 28.7 µM
Records with an inconclusive call do not appear. Calls of active or inactive are those of the source. Calls come from the whole dose curve; as a rule, active = well fitted curve in the direction sought with a large enough effect; inconclusive = small, poorly fitted or top-dose-only effect, or another doubt; inactive = no such curve, though single readings can be large or run the other way.
Tick one outcome: 1.0 (active), 0.0 (inactive)

// below: answered molecules
O=C1CC[C@@]2(O)C3Cc4ccc(O)c5c4C2(CCN3CC2CC2)[C@H]1O5 (some centres undefined)	0.0
O=c1c2ccccc2[se]n1-c1ccccc1	1.0
C[C@]12Cc3cn4c(nc3C=C1CCC1C2CC[C@@]2(C)[C@H]1CC[C@@]2(O)C#N)nc1ccccc14 (some centres undefined)	1.0
C[N+](C)(C)CCOC(=O)CBr	0.0

Prompt: Record lookup: outcome of this test for NC(Cc1ccc(N(CCCl)CCCl)cc1)C(=O)O (centres undefined) ?
Completion: 1.0

Prompt: Record lookup: outcome of this test for CP(=O)(O)C1=CCNCC1 ?
Completion: 0.0

Prompt: Record lookup: outcome of this test for CC(C)(C)c1cc(C=C(C#N)C#N)cc(C(C)(C)C)c1O ?
Completion: 1.0

Prompt: Record lookup: outcome of this test for c1ccc2c(c1)[I+]c1ccccc1-2 ?
Completion: 1.0

Prompt: Record lookup: outcome of this test for C[C@@H]1O[C@H](C[N+](C)(C)C)CS1 ?
Completion: 0.0

Data provenance: PubChem BioAssay (NCATS)
